Target: hTRPV3 (Homo sapiens, UniProt Q8NET8)
Sequence (Q8NET8 1-790): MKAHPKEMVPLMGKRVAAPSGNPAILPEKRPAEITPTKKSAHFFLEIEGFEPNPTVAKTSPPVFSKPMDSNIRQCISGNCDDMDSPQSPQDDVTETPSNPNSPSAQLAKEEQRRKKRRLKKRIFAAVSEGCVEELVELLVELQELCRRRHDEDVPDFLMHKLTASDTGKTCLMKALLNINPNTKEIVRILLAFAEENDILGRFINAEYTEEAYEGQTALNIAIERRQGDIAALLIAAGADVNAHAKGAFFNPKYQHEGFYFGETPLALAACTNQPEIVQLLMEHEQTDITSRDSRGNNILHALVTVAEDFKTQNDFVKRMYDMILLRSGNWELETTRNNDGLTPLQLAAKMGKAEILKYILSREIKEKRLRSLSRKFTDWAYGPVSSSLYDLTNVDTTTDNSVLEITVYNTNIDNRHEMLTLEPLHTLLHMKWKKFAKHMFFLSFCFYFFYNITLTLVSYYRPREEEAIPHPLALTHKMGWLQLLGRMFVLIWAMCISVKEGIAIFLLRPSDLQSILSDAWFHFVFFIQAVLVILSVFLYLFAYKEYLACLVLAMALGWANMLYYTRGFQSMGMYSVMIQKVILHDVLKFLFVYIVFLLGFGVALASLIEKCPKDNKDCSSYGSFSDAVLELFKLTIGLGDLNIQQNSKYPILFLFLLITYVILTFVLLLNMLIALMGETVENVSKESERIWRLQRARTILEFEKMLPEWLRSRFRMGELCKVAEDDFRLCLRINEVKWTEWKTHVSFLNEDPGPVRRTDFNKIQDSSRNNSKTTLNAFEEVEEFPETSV
Test: Patch clamp selectivity, hTRPV3
Conditions: same procedure as Example 3; species not given; read-out: IC50 in Patch Clamp Assay, TrpV3

{"compound": "C[C@H]1CCCN1c1ncc(-c2cccc(NC(=O)Cn3cnc4[nH]c(=O)n(C)c(=O)c43)n2)cn1 [Formula (IV), reference compound]", "IC50": "> 10 µM"}

All values here come from patent US9193729B2.
